Recorded measurements of logP, one per entry
- PROTOCOL DESCRIPTION: Partition coefficient (logP) (HPLC)
- Format: physicochemical
- CONDITION DESCRIPTION: octanol/water

- COMPOUND: "CN/C(=N\\S(=O)(=O)c1ccc(Cl)cc1)N1C[C@H](c2ccccc2)C(c2ccc(Cl)cc2)=N1"
  logP: 5.1
- COMPOUND: "CN/C(=N\\S(=O)(=O)N1CCCCC1)N1C[C@H](c2ccccc2)C(c2ccc(Cl)cc2)=N1"
  logP: 4.8
- COMPOUND: "CCN(CC)S(=O)(=O)N/C(=N\\C)N1CC(c2ccccc2)C(c2ccc(Cl)cc2)=N1 (stereo not given)"
  logP: 4.8
- COMPOUND: "C/N=C(\\NS(=O)(=O)N1CCOCC1)N1CC(c2ccccc2)C(c2ccc(Cl)cc2)=N1 (stereo not given)"
  logP: 3.8
- COMPOUND: "CCN(CC)S(=O)(=O)NC(=NC)N1CC(c2cccnc2)C(c2ccc(Cl)cc2)=N1 (stereo not given)"
  logP: 3.2

Just for reference, ChEMBL document CHEMBL1143468 is where these values come from.
